Tested on: DAF-12 nuclear receptor (Haemonchus contortus)
Experiment: hcDAF-12 driven luciferase reporter activation – cell-based, luminescence, HEK293, lit1-tk-luc reporter, primary screen (AID 652067);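 also: 100% = response to 3 µM Δ7-dafachronic acid high control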
Settings: HEK293 hcDAF-12 lit1-tk-luc reporter, at 6.8 µM, 0% DMSO, 100% Δ7-dafachronic acid
In all, about 370,000 compounds went through this assay and about 5,400 (1.5%) were called active.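 The calls were made as follows: active = activation above the mean of all tested compounds plus 3 SD (cut at about 5.5% in these data); inactive = the rest.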 Shown is part of a subset that was picked to be rich in actives.
Outcome codes: active, inactive

{"columns": ["Compound", "Class name"],
 "data": [
  ["COc1ccc(/C=N/Nc2ncnc3sc4c(c23)CCCC4)cc1O", "inactive"],
  ["O=C(N/N=C/c1ccc(OC(=O)c2ccccc2Cl)cc1)c1ccc(O)cc1", "active"],
  ["COc1cccc(N(C)C(=O)[C@@H](C)[C@@H](O)c2ccc3ccccc3c2)c1", "inactive"],
  ["O=C(NC1CCCCC1)C(c1cc2ccccc2o1)n1c(=O)c(-c2ccco2)nc2ccccc21 (centres undefined)", "active"],
  ["O=C(CSc1nc2ccccc2n1Cc1ccccc1Cl)N/N=C\\c1c[nH]c2ccccc12", "inactive"],
  ["COC(=O)C1=C(C)N(Cc2ccc(C(F)(F)F)cc2)C(=NCc2ccc(C(F)(F)F)cc2)NC1c1cccc(Cl)c1 (centres undefined)", "inactive"],
  ["CC(C)(C)C(=O)Nc1c(Br)c(C2CC2)nn1-c1ccccc1", "inactive"],
  ["COC[C@@H]1CCCN1c1ccc2c(c1)O[C@H](C)CCN(C1CC1)S2(=O)=O", "inactive"],
  ["C=C(C)C#CC(Cc1ccccc1)N(CC1CC1)/C(N)=N/C(=O)OCc1ccccc1 (centres undefined)", "inactive"],
  ["Cc1ccc(NC(=O)Cc2cccc(F)c2)c(S(=O)(=O)N2CCOCC2)c1", "inactive"],
  ["O=C(N/N=C\\C1CC=CCC1)c1ccc(Br)o1 (centres undefined)", "active"],
  ["COC(=O)c1cccc(Cn2ccc3ccc(-c4ccc5ccn(C(=O)c6ccccc6C)c5c4)cc32)c1", "inactive"],
  ["CCC(C)(C)C1CCC(=NNC(=O)c2ccc(Br)o2)CC1 (centres undefined)", "inactive"],
  ["O=c1cc(-c2ccccc2)[nH]c2cc(F)ccc12", "inactive"],
  ["COC(=O)C[C@@H]1CC[C@@H]2[C@@H](COc3ccc(NC(=O)Nc4ccc(F)c(F)c4)cc3C(=O)N2C)O1", "inactive"],
  ["COc1ccccc1NC(=O)c1c(Br)cnn1C", "inactive"],
  ["Cc1cccc(C)c1NC(=O)C(c1cccc2ccccc12)n1c(=O)c(-c2ccco2)nc2ccccc21 (centres undefined)", "inactive"],
  ["Cc1ccc2nc(-c3ccc(CN4CCC(n5cc(-c6ccccc6)[nH]c5=O)CC4)cc3)c(-c3ccccc3)nc2c1", "inactive"],
  ["CC(C)(C)c1ccc(S(=O)(=O)NCC2CCN(C(=O)C(=O)c3cc4ccccc4o3)CC2)cc1", "inactive"]
]}

----------
Tested on: DAF-12 nuclear receptor (Haemonchus contortus)
Experiment: hcDAF-12 driven luciferase reporter activation – cell-based, luminescence, HEK293, lit1-tk-luc reporter, primary screen (AID 652067);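 also: 100% = response to 3 µM Δ7-dafachronic acid high control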
Details: HEK293 hcDAF-12 lit1-tk-luc reporter, at 6.8 µM, active compounds read high, 0% DMSO, 100% Δ7-dafachronic acid
The campaign covered roughly 370,000 compounds. About 5,400 (1.5%) were called active. For the sample, actives were picked, then their nearest neighbours and some compounds at random.
Readout type: activation (%)

{"columns": ["Compound", "Unit label", "Test value"],
 "data": [
  ["O=C(O)CC(CC(=O)N1CCOCC1)c1ccccc1 (configuration not stated)", "%", -2.07],
  ["O=S(=O)(c1ccc(Br)cc1)c1nc(-c2ccccc2)oc1N1CCOCC1", "%", 1.01],
  ["N[C@@H](Cc1ccccc1)C(=O)N1CCOCC1", "%", -1.46],
  ["CC(=O)C1=C(C)N(Cc2ccc(Cl)cc2)C(=S)NC1c1ccc(F)cc1 (configuration not stated)", "%", 0.56],
  ["CN(C(=O)Cn1nnc(-c2ccc(F)cc2)n1)C1CCS(=O)(=O)C1 (configuration not stated)", "%", 0.43],
  ["CC(C)CNc1cccc2c1S(=O)(=O)N(Cc1cn(Cc3ccccc3C(F)(F)F)nn1)Cc1ccccc1O2", "%", -1.42],
  ["COc1ccc(SSc2ccc(OC)cc2C(=O)O)c(C(=O)O)c1", "%", 0.58],
  ["Cc1ccc(CN2CCCCC(NC(=O)C3CCCCC3)C2=O)cc1 (configuration not stated)", "%", -1.6],
  ["CC(C)c1ccc(/C=C2\\NC(=O)NC2=O)cc1", "%", -2.26],
  ["CN(CC(=O)Nc1ccc(Cl)cc1)C(=O)c1ccc(COc2ccccc2)cc1", "%", -1.47],
  ["CC(C)(C)OC(=O)N/N=C/c1ccc(C(=O)O)cc1", "%", 7.41],
  ["Cc1ccc2nc(-c3ccccc3)c(CC3CCCCC3)n2c1", "%", 6.66],
  ["Cc1nc(N=C(N)N)nc2c(C)cccc12", "%", 5.96],
  ["O=C(Nc1cccn(Cc2c(Cl)cccc2Cl)c1=O)c1ccc(Cl)cc1", "%", -0.98],
  ["CC(NC(=O)C(=O)N/N=C/c1ccc(Cl)cc1)c1ccccc1 (configuration not stated)", "%", -1.03],
  ["COc1ccc(N2CCN(CCNS(=O)(=O)c3ccc([N+](=O)[O-])cc3)CC2)cc1", "%", -2.96],
  ["CCc1c(C)nc2c(OC)cccc2c1Cl", "%", -0.4],
  ["O=C(/C=C/c1cnc2ccccc2n1)NC1CCCCCC1", "%", 8.85],
  ["O=C(NC(=S)Nc1cccc2c(O)cccc12)c1cccc(Br)c1", "%", 1.98],
  ["COc1nc(N=C(N)N)nc2c(C)cccc12", "%", 6.14],
  ["COc1ccc(-n2c(COc3ccccc3)nnc2SCC(=O)Nc2ccc3c(c2)OCO3)cc1", "%", -3.31],
  ["Nc1ccn([C@@H]2O[C@H](C(=O)N[C@H]3CCCCNC3=O)[C@@H](O)[C@H]2O)c(=O)n1", "%", 0.58],
  ["COC(=O)c1c(NC(=O)c2ccc(S(=O)(=O)N3CCOCC3)cc2)sc2c1CCN(C(C)C)C2", "%", 2.7],
  ["O=C1CCC2(CCC(c3ccc(Cl)cc3)CC2)N1CCO (configuration not stated)", "%", 0.94],
  ["CN[C@H]1C[C@H]2c3cc(N4CCOCC4)ccc3CCN2C[C@H]1[C@H](C)O", "%", 0.66],
  ["Cc1cc(=O)oc(C)c1C(=O)NCCN(C)Cc1ccccc1", "%", -0.39],
  ["COc1ccc(-n2c(COc3ccc(C)cc3)nnc2SCC(=O)Nc2ccc(Oc3ccccc3)cc2)cc1", "%", -2.93]
]}
